Assay: Metabolic stability in human liver microsomes assessed as compound remaining at 5 uM in presence of 0.5 uM ritonavir by RP-HPLC
Type: ADME, Microsome
Settings: with ritonavir 0.5 uM, read-out: Stability

| Structure string | Censoring operator | remaining at 5 µM (%) |
| --- | --- | --- |
| Cc1ccccc1CNC(=O)[C@H]1N(C(=O)[C@@H](O)[C@H](Cc2ccccc2)NC(=O)c2cccc(O)c2C)CSC1(C)C | = | 56 |
| Cc1cccc(C)c1OCC(=O)N[C@@H](Cc1ccccc1)[C@@H](O)C[C@H](Cc1ccccc1)NC(=O)[C@H](C(C)C)N1CCCNC1=O | > | 95 |
| COc1cccc(C[C@H](NC(=O)c2cccc(N)c2Cl)[C@H](O)C(=O)N2CSC(C)(C)[C@H]2C(=O)NCc2c(C)cccc2C)c1 | = | 93 |

---

Assay: Metabolic stability in dog liver microsomes assessed as compound remaining at 5 uM in presence of 0.5 uM ritonavir by RP-HPLC
Type: ADME, Canis lupus familiaris, Microsome
Settings: with ritonavir 0.5 uM, read-out: Stability
Entries and their measured remaining at 5 µM follow.

| Structure string | remaining at 5 µM (%) |
| --- | --- |
| Cc1cccc(C)c1OCC(=O)N[C@@H](Cc1ccccc1)[C@@H](O)C[C@H](Cc1ccccc1)NC(=O)[C@H](C(C)C)N1CCCNC1=O | 83 |
| Cc1ccccc1CNC(=O)[C@H]1N(C(=O)[C@@H](O)[C@H](Cc2ccccc2)NC(=O)c2cccc(O)c2C)CSC1(C)C | 92 |
| COc1cccc(C[C@H](NC(=O)c2cccc(N)c2Cl)[C@H](O)C(=O)N2CSC(C)(C)[C@H]2C(=O)NCc2c(C)cccc2C)c1 | 90 |

---

Entries and their measured AUC follow.
Assay: AUC in Beagle dog at 15 mg/kg, po
Type: ADME, organism-based, Canis lupus familiaris
Parameters: dose 15 mg/kg, route oral
Conditions: plasma
Measured quantity: AUC (µM·h)

| Structure string | Reported result |
| --- | --- |
| COC(=O)N[C@H](C(=O)N[C@@H](Cc1ccccc1)[C@@H](O)CN(Cc1ccc(-c2ccccn2)cc1)NC(=O)[C@@H](NC(=O)OC)C(C)(C)C)C(C)(C)C | 15 |
| COc1cccc(C[C@H](NC(=O)c2cccc(N)c2Cl)[C@H](O)C(=O)N2CCC(C)(C)[C@H]2C(=O)NCc2c(C)cccc2C)c1 | 36.7 |
| Cc1ccccc1CNC(=O)[C@H]1N(C(=O)[C@@H](O)[C@H](Cc2ccccc2)NC(=O)c2cccc(O)c2C)CSC1(C)C | 6.5 |
| COc1cccc(C[C@H](NC(=O)c2cccc(N)c2Cl)[C@H](O)C(=O)N2CSC(C)(C)[C@H]2C(=O)NCc2c(C)cccc2C)c1 | 15.6 |

---

Test: Metabolic stability in human liver microsomes assessed as compound remaining at 5 uM in presence of UDPGA by RP-HPLC
Assay type: ADME, Microsome
Settings: read-out: Stability
Measured quantity: remaining at 5 µM

| Structure string | Reported result |
| --- | --- |
| COc1cccc(C[C@H](NC(=O)c2cccc(N)c2Cl)[C@H](O)C(=O)N2CCC(C)(C)[C@H]2C(=O)NCc2c(C)cccc2C)c1 | > 95% |
| Cc1ccccc1CNC(=O)[C@H]1N(C(=O)[C@@H](O)[C@H](Cc2ccccc2)NC(=O)c2cccc(O)c2C)CSC1(C)C | 55% |
| CCOc1ccc(C[C@H](NC(=O)c2cccc(N)c2Cl)[C@H](O)C(=O)N2CSC(C)(C)[C@H]2C(=O)NCc2c(C)cccc2C)cc1 | > 95% |
| Cc1ccccc1CNC(=O)[C@H]1N(C(=O)[C@@H](O)[C@H](Cc2ccc3c(c2)OCO3)NC(=O)c2cccc(N)c2Cl)CSC1(C)C | > 95% |
